- protocol_summary: Probe fluorescence ratio response to linolenic acid relative to ADIFAB2
- Format: binding
- condition_set: response relative to ADIFAB2

molecule	DR/DR LNA
49F1, 72A (protein, listed as Rattus norvegicus, PEPTIDE (1)...(131) wild-type rat intestinal fatty acid binding protein) AFDGTWKVDRNENYEKFMEKMGINVVKRKLGAHDNLKLTITQEGNKFTFKESSNFRNIDVVFELGVDFAYSAADGTELTGTWTMEGNKLVGKFKRVDNGKELIAVREISGNELIQTYTYEGVEAKRIFKKE	1.18
14L 38I 72A (protein, listed as Rattus norvegicus, PEPTIDE (1)...(131) wild-type rat intestinal fatty acid binding protein) AFDGTWKVDRNENLEKFMEKMGINVVKRKLGAHDNLKITITQEGNKFTVKESSNFRNIDVVFELGVDFAYSAADGTELTGTWTMEGNKLVGKFKRVDNGKELIAVREISGNELIQTYTYEGVEAKRIFKKE	1.177
